Test system: SNB-19
method.description: NCI 60 cell line single dose screen (SRB)
Assay type: cell-based
applied.conditions: Homo sapiens; SNB-19 (CNS cancer), single dose 10^−5 M, 48 h; read-out: Growth inhibition percentage
measured.endpoint: inhibition at 10 µM

Example compounds with recorded inhibition at 10 µM:
{"columns": ["compound", "system.under.test", "inhibition at 10 µM"],
 "data": [
  ["Cc1nn(-c2ccc(F)cc2)c2ncnc(N3CCN(c4ccc(Cl)cc4)CC3)c12", "SNB-19", "-4.77%"],
  ["Cc1nn(-c2ccc(F)cc2)c2nc[nH]c(=O)c12", "SNB-19", "-3.69%"],
  ["Cc1nn(-c2ccc(F)cc2)c2ncnc(NN)c12", "SNB-19", "11.3%"]
]}

Exercise: Record Cc1nn(-c2ccc(F)cc2)c2nc(N)nc(N)c12 : what is its inhibition at 10 µM with SNB-19?
Solution: -7.94%

Exercise: Query inhibition at 10 µM on SNB-19 for Cc1nn(-c2ccc(F)cc2)c2ncnc(N)c12
Solution: -9.19%

Exercise: Short answer please: inhibition at 10 µM, SNB-19, entry Cc1nn(-c2ccc(F)cc2)c2ncnc(Nc3ccc(F)c(Cl)c3)c12
Solution: 20.4%

Exercise: What inhibition at 10 µM appears in the records for this compound with SNB-19? COc1ccc(N2CCN(c3ncnc4c3c(C)nn4-c3ccc(F)cc3)CC2)cc1
Solution: 2.02%

Exercise: Give recorded inhibition at 10 µM with SNB-19 for the following compound: COc1cc(C=NNc2ncnc3c2c(C)nn3-c2ccc(F)cc2)cc(OC)c1OC [Compound 10c]
Solution: -4.87%

Exercise: What reported inhibition at 10 µM corresponds to Cc1ccc(Nc2ncnc3c2c(C)nn3-c2ccc(F)cc2)cc1 on SNB-19?
Solution: 7.21%

Exercise: Write down the reported inhibition at 10 µM of Cc1nn(-c2ccc(F)cc2)c2ncnc(N3CCOCC3)c12 , test system: SNB-19.
Solution: 5.14%

Exercise: Identify the measured inhibition at 10 µM of COc1cc(C=NNc2ncnc3c2c(C)nn3-c2ccc(F)cc2)ccc1O [Compound 10b] for SNB-19.
Solution: 6.67%

Exercise: Query for SNB-19: what inhibition at 10 µM does the record show for Cc1nn(-c2ccc(F)cc2)c2ncnc(Cl)c12 ?
Solution: 7.79%

----------
Test system: RXF 393
method.description: NCI 60 cell line single dose screen (SRB)
Type: cell-based
applied.conditions: Homo sapiens; RXF 393 (renal cancer), single dose 10^−5 M, 48 h; read-out: Growth inhibition percentage
Experimental: Anticancer activity screening of the newly synthesised compounds was measured in vitro utilising 60 different human tumour cell lines provided by US National Cancer Institute according to previously reported standard procedure[27–29] as follows: Cells are inoculated into 96-well microtitre plates in 100 ml. […] Bound stain is subsequently solubilised with 10 mM trizma base, and the absorbance is read on an automated plate reader at a wavelength of 515 nm. […]
measured.endpoint: inhibition at 10 µM (%)
Kindly provide the numeric value in % only, without the unit symbol.

// worked examples, inhibition at 10 µM included
{"columns": ["compound", "uom", "result.number"],
 "data": [
  ["COc1ccc(N2CCN(c3ncnc4c3c(C)nn4-c3ccc(F)cc3)CC2)cc1", "%", -9.45],
  ["Cc1nn(-c2ccc(F)cc2)c2ncnc(N3CCOCC3)c12", "%", -15.7],
  ["Cc1nn(-c2ccc(F)cc2)c2ncnc(NN)c12", "%", 5.47],
  ["Cc1nn(-c2ccc(F)cc2)c2ncnc(N)c12", "%", -17.3],
  ["Cc1ccc(Nc2ncnc3c2c(C)nn3-c2ccc(F)cc2)cc1", "%", -13.7],
  ["COc1cc(C=NNc2ncnc3c2c(C)nn3-c2ccc(F)cc2)cc(OC)c1OC [Compound 10c]", "%", 3.39],
  ["COc1cc(C=NNc2ncnc3c2c(C)nn3-c2ccc(F)cc2)ccc1O [Compound 10b]", "%", 4.9],
  ["Cc1nn(-c2ccc(F)cc2)c2ncnc(Nc3ccc(F)c(Cl)c3)c12", "%", -0.39]
]}

Then there is this compound:
Exercise: Looking for the measured inhibition at 10 µM of Cc1nn(-c2ccc(F)cc2)c2ncnc(N3CCN(c4ccc(Cl)cc4)CC3)c12 , can you help?
Solution: -16.5

----------
Each entry below lists one item and its recorded inhibition at 10 µM value.
Test system: SK-MEL-2
method.description: NCI 60 cell line single dose screen (SRB)
Assay type: cell-based
applied.conditions: Homo sapiens; SK-MEL-2 (melanoma), single dose 10^−5 M, 48 h; read-out: Growth inhibition percentage
Quick note: give the figure in %, leave out the unit.

Consider the reported inhibition at 10 µM for these compounds:
{"columns": ["structure.smiles.string", "system.under.test", "measured.endpoint", "result.number"],
 "data": [
  ["Cc1nn(-c2ccc(F)cc2)c2ncnc(N3CCN(c4ccc(Cl)cc4)CC3)c12", "SK-MEL-2", "inhibition at 10 µM", 9.37],
  ["Cc1nn(-c2ccc(F)cc2)c2ncnc(Nc3ccc(F)c(Cl)c3)c12", "SK-MEL-2", "inhibition at 10 µM", 2.61],
  ["Cc1nn(-c2ccc(F)cc2)c2nc(N)nc(N)c12", "SK-MEL-2", "inhibition at 10 µM", 3.86],
  ["COc1ccc(N2CCN(c3ncnc4c3c(C)nn4-c3ccc(F)cc3)CC2)cc1", "SK-MEL-2", "inhibition at 10 µM", -1.69]
]}

Exercise: Sample Cc1ccc(Nc2ncnc3c2c(C)nn3-c2ccc(F)cc2)cc1 — what was its inhibition at 10 µM?
Solution: 10.9

----------
Tested on: IGROV1
method.description: NCI 60 cell line single dose screen (SRB)
Format: cell-based
applied.conditions: Homo sapiens, IGROV-1; IGROV1 (ovarian cancer), single dose 10^−5 M, 48 h; read-out: Growth inhibition percentage
# inhibition at 10 µM listing for each entry below
A number alone suffices; assume %.

Exercise: I am curious: what inhibition at 10 µM value has been reported for Cc1nn(-c2ccc(F)cc2)c2nc[nH]c(=O)c12 ?
Solution: 5.29

Exercise: Would you mind telling me what inhibition at 10 µM value was observed for Cc1nn(-c2ccc(F)cc2)c2ncnc(N)c12 ?
Solution: 11.1

Exercise: # inhibition at 10 µM lookup, item Cc1ccc(Nc2ncnc3c2c(C)nn3-c2ccc(F)cc2)cc1
Solution: 1.54

----------
Test system: MOLT-4
method.description: NCI 60 cell line single dose screen (SRB)
Assay type: cell-based
applied.conditions: Homo sapiens; MOLT-4 (leukemia), single dose 10^−5 M, 48 h; read-out: Growth inhibition percentage
Quick reference for inhibition at 10 µM among some compounds
The reply should be a number in %, with the unit left off.

Solved cases below.
{"columns": ["compound", "system.under.test", "measured.endpoint", "result.number"],
 "data": [
  ["COc1cc(C=NNc2ncnc3c2c(C)nn3-c2ccc(F)cc2)ccc1O [Compound 10b]", "MOLT-4", "inhibition at 10 µM", 38.3],
  ["Cc1nn(-c2ccc(F)cc2)c2ncnc(N3CCOCC3)c12", "MOLT-4", "inhibition at 10 µM", 5.79],
  ["COc1cc(C=NNc2ncnc3c2c(C)nn3-c2ccc(F)cc2)cc(OC)c1OC [Compound 10c]", "MOLT-4", "inhibition at 10 µM", 7.03],
  ["Cc1nn(-c2ccc(F)cc2)c2ncnc(Nc3ccc(F)c(Cl)c3)c12", "MOLT-4", "inhibition at 10 µM", 4.27],
  ["COc1ccc(N2CCN(c3ncnc4c3c(C)nn4-c3ccc(F)cc3)CC2)cc1", "MOLT-4", "inhibition at 10 µM", 3.49]
]}

Exercise: Recorded inhibition at 10 µM for Cc1nn(-c2ccc(F)cc2)c2nc(N)nc(N)c12 , please?
Solution: -0.48

Exercise: Item Cc1ccc(Nc2ncnc3c2c(C)nn3-c2ccc(F)cc2)cc1 has what recorded inhibition at 10 µM?
Solution: 1.83

Exercise: Need inhibition at 10 µM of Cc1nn(-c2ccc(F)cc2)c2ncnc(N3CCN(c4ccc(Cl)cc4)CC3)c12 , thanks.
Solution: 7.19

Exercise: // lookup inhibition at 10 µM for Cc1nn(-c2ccc(F)cc2)c2nc[nH]c(=O)c12
Solution: 3.3

Exercise: Recorded inhibition at 10 µM for Cc1nn(-c2ccc(F)cc2)c2ncnc(N)c12 , please?
Solution: 0.58

Exercise: I'd like to know its inhibition at 10 µM. The compound in question is Cc1nn(-c2ccc(F)cc2)c2ncnc(Cl)c12
Solution: 13.8

Exercise: Can you look up the measured inhibition at 10 µM of Cc1nn(-c2ccc(F)cc2)c2ncnc(NN)c12 for me?
Solution: 22.7

----------
System: SF-268
method.description: NCI 60 cell line single dose screen (SRB)
Type: cell-based
applied.conditions: Homo sapiens; SF-268 (CNS cancer), single dose 10^−5 M, 48 h; read-out: Growth inhibition percentage
measured.endpoint: inhibition at 10 µM (%)
Give the number; % is assumed, so skip it.

{"columns": ["compound", "measured.endpoint", "result.number"],
 "data": [
  ["Cc1nn(-c2ccc(F)cc2)c2ncnc(NN)c12 [Compound 9]", "inhibition at 10 µM", 25.6]
]}

Exercise: Recorded inhibition at 10 µM for Cc1nn(-c2ccc(F)cc2)c2ncnc(N)c12 [Compound 4] with SF-268, please?
Solution: 3.71

Exercise: Form: Entry = COc1cc(C=NNc2ncnc3c2c(C)nn3-c2ccc(F)cc2)ccc1O [Compound 10b] | System = SF-268 | inhibition at 10 µM = ____
Solution: 29

Exercise: Which inhibition at 10 µM is reported with SF-268 for this entry: Cc1nn(-c2ccc(F)cc2)c2ncnc(N3CCN(c4ccc(Cl)cc4)CC3)c12 [Compound 8c] ?
Solution: 4.51

Exercise: Identify the measured inhibition at 10 µM of Cc1nn(-c2ccc(F)cc2)c2ncnc(Nc3ccc(F)c(Cl)c3)c12 [Compound 7d] for SF-268.
Solution: 3.94

Exercise: Write down the reported inhibition at 10 µM of Cc1nn(-c2ccc(F)cc2)c2nc[nH]c(=O)c12 [Compound 3] , test system: SF-268.
Solution: -1.71

Exercise: // lookup inhibition at 10 µM | system=SF-268 | key= Cc1nn(-c2ccc(F)cc2)c2nc(N)nc(N)c12 [Compound 5]
Solution: -2.3

Exercise: // map Cc1ccc(Nc2ncnc3c2c(C)nn3-c2ccc(F)cc2)cc1 [Compound 7c] to recorded inhibition at 10 µM (system: SF-268)
Solution: 1.06

Exercise: Could you share what inhibition at 10 µM was measured for COc1ccc(N2CCN(c3ncnc4c3c(C)nn4-c3ccc(F)cc3)CC2)cc1 [Compound 8d] , tested on SF-268?
Solution: -2.9
